Data provenance is patent US20210009613A1.

# System: Ba/F3 parental
# assay-overview: Cytotoxicity test (CellTiter-Glo), Ba/F3 parental
# Format: cell-based
# test-conditions: Mus musculus, BaF3, 72 hours
Each item that follows carries a reported IC50.

[
  {
    "molecule": "COc1nc(N2CCC(N(C)C)CC2)ccc1Nc1nc(Nc2ccccc2P(C)(C)=O)c2cc[nH]c2n1 [Example 13]",
    "IC50": "400 to 1000 nM"
  },
  {
    "molecule": "COc1nc(N2CCN(C)CC2)ccc1Nc1nc(Nc2ccccc2P(C)(C)=O)c2cc[nH]c2n1 [Example 14]",
    "IC50": "400 to 1000 nM"
  },
  {
    "molecule": "COc1nc(N2CCC(N3CCN(C)CC3)CC2)ccc1Nc1nc(Nc2ccccc2P(C)(C)=O)c2cc[nH]c2n1 [Example 16]",
    "IC50": "400 to 1000 nM"
  },
  {
    "molecule": "CNCCc1ccc(Nc2ncc(Cl)c(Nc3ccccc3P(C)(C)=O)n2)c(OCC(F)(F)F)n1 [Example 18]",
    "IC50": "≥ 1000 nM"
  }
]

---

# System: Ba/F3 [EML4-ALK]
# assay-overview: Cytotoxicity test (CellTiter-Glo), Ba/F3 [EML4-ALK]
# Format: cell-based
# test-conditions: ratio of Ba/F3 IC50 values
Each item that follows carries a reported Selectivity parental/ALK.
observable: Selectivity parental/ALK

[
  {
    "molecule": "COc1nc(N2CCC(N(C)C)CC2)ccc1Nc1ncc(Cl)c(Nc2ccccc2P(C)(C)=O)n1 [Example 1]",
    "target-or-test-system": "Ba/F3 [EML4-ALK]",
    "endpoint-value": "50~100"
  },
  {
    "molecule": "CC(C)Oc1nc(N2CCC(N3CCN(C)CC3)CC2)ccc1Nc1ncc(Cl)c(Nc2ccccc2P(C)(C)=O)n1 [Example 8]",
    "target-or-test-system": "Ba/F3 [EML4-ALK]",
    "endpoint-value": "200~400"
  },
  {
    "molecule": "CN(C)CCc1ccc(Nc2ncc(Cl)c(Nc3ccccc3P(C)(C)=O)n2)c(OCC(F)(F)F)n1 [Example 19]",
    "target-or-test-system": "Ba/F3 [EML4-ALK]",
    "endpoint-value": "100~200"
  },
  {
    "molecule": "COc1nc(N(C)CCN(C)C)ccc1Nc1ncc(Cl)c(Nc2ccccc2P(C)(C)=O)n1 [Example 3]",
    "target-or-test-system": "Ba/F3 [EML4-ALK]",
    "endpoint-value": "100~200"
  },
  {
    "molecule": "CC(C)Oc1nc(N2CCC(N(C)C)CC2)ccc1Nc1ncc(Cl)c(Nc2ccccc2P(C)(C)=O)n1 [Example 5]",
    "target-or-test-system": "Ba/F3 [EML4-ALK]",
    "endpoint-value": "100~200"
  },
  {
    "molecule": "COc1nc(N2CCN(C)CC2)ccc1Nc1nc(Nc2ccccc2P(C)(C)=O)c2cc[nH]c2n1 [Example 14]",
    "target-or-test-system": "Ba/F3 [EML4-ALK]",
    "endpoint-value": "50~100"
  },
  {
    "molecule": "CC(C)Oc1nc(N2CCN(C)CC2)ccc1Nc1ncc(Cl)c(Nc2ccccc2P(C)(C)=O)n1 [Example 6]",
    "target-or-test-system": "Ba/F3 [EML4-ALK]",
    "endpoint-value": "200~400"
  },
  {
    "molecule": "COc1nc(N2CCC(N3CCN(C)CC3)CC2)ccc1Nc1nc(Nc2ccccc2P(C)(C)=O)c2cc[nH]c2n1 [Example 16]",
    "target-or-test-system": "Ba/F3 [EML4-ALK]",
    "endpoint-value": "50~100"
  },
  {
    "molecule": "CN(C)C1CCN(c2ccc(Nc3ncc(Cl)c(Nc4ccccc4P(C)(C)=O)n3)c(OCC(F)(F)F)n2)CC1 [Example 9]",
    "target-or-test-system": "Ba/F3 [EML4-ALK]",
    "endpoint-value": "200~400"
  },
  {
    "molecule": "COc1nc(N2CCC(N(C)C)CC2)ccc1Nc1nc(Nc2ccccc2P(C)(C)=O)c2cc[nH]c2n1 [Example 13]",
    "target-or-test-system": "Ba/F3 [EML4-ALK]",
    "endpoint-value": "0~50"
  },
  {
    "molecule": "COc1nc(N2CCN(C)CC2)ccc1Nc1ncc(Cl)c(Nc2ccccc2P(C)(C)=O)n1 [Example 2]",
    "target-or-test-system": "Ba/F3 [EML4-ALK]",
    "endpoint-value": "50~100"
  },
  {
    "molecule": "CNCCc1ccc(Nc2ncc(Cl)c(Nc3ccccc3P(C)(C)=O)n2)c(OCC(F)(F)F)n1 [Example 18]",
    "target-or-test-system": "Ba/F3 [EML4-ALK]",
    "endpoint-value": "50~100"
  },
  {
    "molecule": "CN1CCN(c2ccc(Nc3ncc(Cl)c(Nc4ccccc4P(C)(C)=O)n3)c(OCC(F)(F)F)n2)CC1 [Example 10]",
    "target-or-test-system": "Ba/F3 [EML4-ALK]",
    "endpoint-value": "100~200"
  },
  {
    "molecule": "CN1CCN(C2CCN(c3ccc(Nc4ncc(Cl)c(Nc5ccccc5P(C)(C)=O)n4)c(OCC(F)(F)F)n3)CC2)CC1 [Example 12]",
    "target-or-test-system": "Ba/F3 [EML4-ALK]",
    "endpoint-value": 111.30
  },
  {
    "molecule": "COc1nc(N2CCC(N3CCN(C)CC3)CC2)ccc1Nc1ncc(Cl)c(Nc2ccccc2P(C)(C)=O)n1 [Example 4]",
    "target-or-test-system": "Ba/F3 [EML4-ALK]",
    "endpoint-value": "50~100"
  }
]
